test: Partition coefficient (logP); assay type: physicochemical; conditions: octanol/water

Record smiles: O=C(O)c1[nH]c2cc(Cl)cc(Cl)c2c1CN1CC(=O)N(c2ccccc2)C1=O
logP: 2.16
--
Record smiles: O=C(NCc1c(C(=O)O)[nH]c2cc(Cl)cc(Cl)c12)c1ccccc1
logP: 2.36
--
Record smiles: O=C(O)c1[nH]c2cc(Cl)cc(Cl)c2c1CNS(=O)(=O)c1ccccc1
logP: 3.1
--
Record smiles: O=C(NCc1c(C(=O)O)[nH]c2cc(Cl)cc(Cl)c12)Nc1ccccc1
logP: 2.83
